# system_tested: T1, human CD73 on cells (human, UniProt P21589 27-549)
# T1 sequence: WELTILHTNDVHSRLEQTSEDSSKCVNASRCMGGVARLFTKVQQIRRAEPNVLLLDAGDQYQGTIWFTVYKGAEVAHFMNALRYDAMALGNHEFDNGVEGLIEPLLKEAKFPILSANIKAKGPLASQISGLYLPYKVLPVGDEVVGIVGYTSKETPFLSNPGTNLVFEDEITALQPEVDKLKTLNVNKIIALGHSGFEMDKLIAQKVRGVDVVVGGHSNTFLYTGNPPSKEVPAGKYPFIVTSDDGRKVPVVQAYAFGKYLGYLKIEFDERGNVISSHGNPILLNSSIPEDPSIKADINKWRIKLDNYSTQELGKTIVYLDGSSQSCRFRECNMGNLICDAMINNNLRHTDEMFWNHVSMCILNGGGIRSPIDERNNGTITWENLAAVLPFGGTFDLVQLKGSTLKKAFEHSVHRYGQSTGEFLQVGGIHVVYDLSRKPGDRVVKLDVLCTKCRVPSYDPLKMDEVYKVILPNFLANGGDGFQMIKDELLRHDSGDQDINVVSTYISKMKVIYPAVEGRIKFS
# run_description: cell-based or functional assay
# Lookup of reported Ymax, cAMP HTRF assay (100 nM 11F11 set to 100%) keyed by entry
All answers are understood in %, so give the number only.

# count of solved cases: 3
binder	result_value
11F11 (antibody, human IgG2, kappa, V domains shown, IgG2; also called 11F11-2) VH: QVQLVESGGGVVQPGRSLRLSCATSGFTFSNYGMHWVRQAPGKGLEWVAVILYDGSNKYYPDSVKGRFTISRDNSKNTLYLQMNSLRAEDTAVYYCARGGSSWYPDSFDIWGQGTMVTVSS VL: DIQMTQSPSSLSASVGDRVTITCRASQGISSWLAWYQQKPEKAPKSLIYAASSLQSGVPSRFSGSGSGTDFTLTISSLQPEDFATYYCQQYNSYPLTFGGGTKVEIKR	76
7A11 (antibody, human IgG1, kappa, V domains shown) VH: EVQLVESGGGLVQTGRSLRLSCAASGFTFDDYAMHWVRQAPGKGLEWVSDISWNSDIIGYADSVKGRFTISRDNAKNSLYLQMNSLRAEDTALYYCAKDIYGSGSSFFDYWGQGILVTVSS VL: DIQMTQSPSSLSASVGDRVTITCRASQYISSWLAWYQQKPEKAPKSLIYAASSLQSGVPSRFSGSGSGTDFTLTISSLQPEDFATYYCQQYHSYPPTFGQGTRLEIKR	45
5F8 (antibody, human IgG1, kappa, V domains shown) VH: EVQLVESGGGLVQPGGSLRLSCAASGFTFSSYWMHWVRQAPGKGLVWVSRIISDGSSTGYADSVKGRFTISRDNAKNTLYLQMNSLRAEDTAVYYCAREFSSGWYFDYWGQGTLVTVSS VL: AIQLTQSPSSLSASVGDRVTITCRASQGISSALAWYQQKPGKAPKLLIYDASSLESGVPSRFSGSGSGTDFTLTISSLQPEDFATYYCQQFSSYPRTFGQGTKVEIKR	80

stdin: What value of Ymax, cAMP HTRF assay (100 nM 11F11 set to 100%) has been recorded for this entry: 11A6 (antibody, human IgG1, kappa, V domains shown) VH: EVQLVESGGNLVQPGRSLRLSCAASGFTFDDYAMHWVRQAPGKGLEWVSGISWNNNDIGYADSVKGRFIISRDNAKNSLYLQMNSLRPEDTALYYCVKGYYVILTGLDYWGQGTPVTVSS VL: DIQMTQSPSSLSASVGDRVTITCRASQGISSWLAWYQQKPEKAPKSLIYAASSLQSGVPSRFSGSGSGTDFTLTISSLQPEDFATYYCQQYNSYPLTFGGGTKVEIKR
stdout: 84
